Experiment: NCI Yeast Anticancer Drug Screen. Data for the rad50 strain (AID 155);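 also: 0% = growth of vehicle-only cultures of the same strain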
Conditions: S. cerevisiae rad50 strain growth inhibition; at 5.0 µM (retest, dose inferred, filed as 0.5); active compounds read high
Experimental: Growth inhibition of yeast strains with defined genetic alterations is measured as a screen for potential anti-cancer activity. Selected strains with alterations in DNA damage repair or cell cycle control were exposed to compounds and growth inhibition was measured relative to vehicle treated controls. The strain used in this assay is rad50
The panel holds about 79,000 compounds, 15% with a hit somewhere; the sample as a whole holds those more often.
Assay endpoint: growth inhibition (%)
Entry rule: numbers only, all in %.

The cases that follow already have their growth inhibition on record.
- Molecule: "O=C1C=CC(=O)N1CCc1ccccc1"
  growth inhibition [%]: -33
- Molecule: "CC(C)SC(=S)Nc1ccc(Cl)c([N+](=O)[O-])c1"
  growth inhibition [%]: 25
- Molecule: "C[n+]1c(-c2ccc(/C=N/NC(=O)c3ccc(C(=O)N/N=C/c4ccc(-c5cn6ccccc6[n+]5C)cc4)nc3)cc2)cn2ccccc21"
  growth inhibition [%]: 35
- Molecule: "Cc1cc(Br)ccc1NC(=O)/C=C/C(=O)O"
  growth inhibition [%]: -23
- Molecule: "COc1ccccc1NC(=O)CC(=O)N1N=C(C)C(N=Nc2ccc(I)cc2)C1=O (stereo not drawn)"
  growth inhibition [%]: 5

In: Value lookup for growth inhibition; key = "COc1ccc(/C(Cl)=C(\C=O)c2ccc(Cl)cc2)cc1OC"
Out: 6

In: Same thing, different molecule: "c1ccc(SSc2ccccn2)nc1"
Out: 17

In: Same thing, different molecule: "Clc1ccnc2c1ccc1c(Cl)ccnc12"
Out: 8

----------
Experiment: NCI Yeast Anticancer Drug Screen. Data for the mec2-1 strain (AID 157)
Conditions: S. cerevisiae mec2-1 strain, at 5.0 µM (retest, dose inferred, filed as 0.5), active compounds read high
The panel holds about 79,000 compounds, 15% with a hit somewhere; the sample as a whole holds those more often.
Listing of recorded growth inhibition by entry.
Entry rule: numbers only, all in %.

The cases that follow already have their growth inhibition on record.
- Molecule: "CC1=C(C(=S)Nc2ccc(Cl)c(C(=O)OC(C)C)c2)SCCO1"
  growth inhibition, %: 19
- Molecule: "Nc1nc(SCc2ccccc2)c2ncn(CCCl)c2n1"
  growth inhibition, %: -4
- Molecule: "Cn1c(=S)c2[nH]c(SCc3ccncc3)nc2n(C)c1=O"
  growth inhibition, %: 0
- Molecule: "N#CC1(C#N)C(C#N)(C#N)C12CCCC2"
  growth inhibition, %: 4
- Molecule: "COC(=O)Nc1nc2ccc(C(C)(O)c3cccs3)cc2[nH]1 (configuration not stated)"
  growth inhibition, %: -8

In: Value lookup for growth inhibition; key = Cc1[nH]c2ccccc2c1C1=CC2(C)Nc3ccccc3C2C(C)(C)C1 (configuration not stated)
Out: 2

In: Same thing, different molecule: "CCCCCCCCCCCCCCCCNC(=O)/C(=C\c1ccccc1O)NC(=O)c1ccccc1"
Out: -8

----------
Listing of recorded growth inhibition by entry.
Assay: NCI Yeast Anticancer Drug Screen. Data for the rad50 strain (AID 155);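 also: 0% = growth of vehicle-only cultures of the same strain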
Conditions: S. cerevisiae rad50 strain growth inhibition; at 5.0 µM (retest, dose inferred, filed as 0.5); active compounds read high
The panel holds about 79,000 compounds, 15% with a hit somewhere; the sample as a whole holds those more often.
Entry rule: numbers only, all in %.

The cases that follow already have their growth inhibition on record.
- Compound: "Cc1c(O)ccc2c1OCC(c1ccc(Cl)cc1)C2 (stereo not given)"
  growth inhibition [%]: -19
- Compound: "CN(C)CCOC(=O)C1(CCC2CCCCC2)CCCCC1"
  growth inhibition [%]: 0

In: Value lookup for growth inhibition; key = "O=S(=O)(OI(OI(OS(=O)(=O)C(F)(F)F)c1ccccc1)c1ccccc1)C(F)(F)F"
Out: 58

In: Same thing, different compound: "Cc1cccc(C)c1NC(=O)CCc1nnc(N)n1N"
Out: 17

In: Same thing, different compound: "Cc1c2ccccc2c(CO)c2cc(F)c3ccccc3c12"
Out: 71

----------
Listing of recorded growth inhibition by entry.
Test: NCI Yeast Anticancer Drug Screen. Data for the rad50 strain (AID 155);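 also: 0% = growth of vehicle-only cultures of the same strain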
Conditions: S. cerevisiae rad50 strain growth inhibition; at 5.0 µM (retest, dose inferred, filed as 0.5); active compounds read high
Description: Growth inhibition of yeast strains with defined genetic alterations is measured as a screen for potential anti-cancer activity. Selected strains with alterations in DNA damage repair or cell cycle control were exposed to compounds and growth inhibition was measured relative to vehicle treated controls. The strain used in this assay is rad50
About 79,000 compounds went through this panel and 15% of them were active in at least one assay; those are over-represented in the sample as a whole.
Entry rule: numbers only, all in %.

The cases that follow already have their growth inhibition on record.
- Compound: "O=Nc1c(NO)c2ccccc2c2ccccc12"
  growth inhibition / %: 5
- Compound: "[N-]=[N+]=Nc1c(-c2ccccc2)c(Cl)nc2ccccc12"
  growth inhibition / %: 11
- Compound: "CN(C)CCCNc1c2ccccc2nc2ccc(F)cc12"
  growth inhibition / %: 0
- Compound: "O=[N+]([O-])c1ccc2c(c1)/C(=N\\O)c1cc(Br)ccc1-2"
  growth inhibition / %: 14
- Compound: "O=C(CCN1CCOCC1)c1ccc(Oc2ccc(F)cc2)cc1"
  growth inhibition / %: 65
- Compound: "CC1=C(C2CO2)C(=O)C(C)=C(C2CO2)C1=O (stereo unspecified)"
  growth inhibition / %: 68
- Compound: "CCCCCCCCC(=O)Cl"
  growth inhibition / %: 11
- Compound: "CNc1ccc(F)cc1SSc1cc(F)ccc1NC"
  growth inhibition / %: 97

In: Value lookup for growth inhibition; key = COC(=O)C1(COCc2ccccc2)CCCC2OC21 (stereo unspecified)
Out: 16

In: Same thing, different compound: "O=C(Nc1ccc(Cl)cc1)NS(=O)(=O)c1c(-c2ccccc2)oc2ccccc2c1=O"
Out: 14

In: Same thing, different compound: "CN(C)CCN(C)CCC(=O)/C=C/c1ccccc1"
Out: 95

In: Same thing, different compound: "C(=N\N=C\c1ccc2c(c1)OCO2)/c1ccc2c(c1)OCO2"
Out: 2

In: Same thing, different compound: "O=C1C(=O)c2cc(Cl)ccc2-c2ccc(Cl)cc21"
Out: 20

In: Same thing, different compound: COc1ccc(OC2OC(COC(c3ccccc3)(c3ccc(OC)cc3)c3ccc(OC)cc3)C(O)C(O)C2O)cc1 (stereo unspecified)
Out: 4

----------
Listing of recorded growth inhibition by entry.
Experiment: NCI Yeast Anticancer Drug Screen. Data for the cln2 rad14 strain (AID 165);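 also: 0% = growth equal to vehicle treated cultures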
Conditions: S. cerevisiae cln2 rad14 strain, at 5.0 µM (retest, dose inferred, filed as 0.5), active compounds read high
This is part of a sample that, as a whole, favours compounds with a hit. Of some 79,000 tested, about 15% had one in any assay.
Entry rule: numbers only, all in %.

- Compound: "Cc1ccc2cccc(N)c2c1"
  Assay endpoint: "growth inhibition"
  Units label: "%"
  Observed result: 1
- Compound: "O=C1/C(=C/c2cccc(O)c2)SC(=S)N1/C=C\\c1nc2ccccc2[nH]c1=O"
  Assay endpoint: "growth inhibition"
  Units label: "%"
  Observed result: 17

In: Value lookup for growth inhibition; key = CCCCCC(/C=N/NC(N)=S)C(O)(C(F)(F)F)C(F)(F)F (stereo not drawn)
Out: -11

----------
Experiment: NCI Yeast Anticancer Drug Screen. Data for the bub3 strain (AID 167)
Settings: S. cerevisiae bub3 mutant strain, at 50.0 µM (retest, dose inferred, filed as 5.0)
The panel holds about 79,000 compounds, 15% with a hit somewhere; the sample as a whole holds those more often. Calls of active or inactive are those of the source. Cut-off read from the data, not from the text of the source: active = growth inhibition above about 70%; inactive = the rest.
Would you mind answering with one of these outcomes? active, inactive

Answered cases to consult:
- Compound: "Cc1ccc(S(=O)(=O)Nn2c(S)c(C#N)c(-c3ccc(Cl)cc3)c(C#N)c2=O)cc1"
  Answer label: "active"
- Compound: "O=[N+]([O-])c1cc(C(F)(F)F)ccc1SSc1ccc(C(F)(F)F)cc1[N+](=O)[O-]"
  Answer label: "active"

In: Per the assay record, what outcome was assigned to "CCCOC(=O)COc1ccccc1C(=O)OCCC" ?
Out: inactive

In: Same thing, different compound: COC(=O)c1ccc(C)cc1C1CN=NC12Cc1cccc(C)c1C2=O (configuration not stated)
Out: inactive

In: Same thing, different compound: "COc1ccc2c(c1)CCc1c(CO)c(COC(=O)NC(C)C)n(C)c1-2"
Out: inactive

In: Same thing, different compound: "O=C(O)Cc1cccc(O)c1"
Out: inactive

In: Same thing, different compound: "CCOc1c(N=Nc2ccc(Cl)cc2)c(-c2ccccc2)nn1C(=S)S"
Out: active

In: Same thing, different compound: Cc1ccc(N2C(=O)C(C)SC2=S)cc1Cl (configuration not stated)
Out: inactive

In: Same thing, different compound: "CCCCCOC(=S)SSSC(=S)OCCCCC"
Out: active

In: Same thing, different compound: OC(OC/C(I)=C(/I)COC(O)C(Cl)(Cl)Cl)C(Cl)(Cl)Cl (configuration not stated)
Out: active

In: Same thing, different compound: "CN(C)CCC(=O)c1ccco1"
Out: inactive

In: Same thing, different compound: "CCCCCCCCCCCC(=O)OCCN(CC)CC"
Out: active
